targetOrSystem: human EGFR exon 20 V769_D770insASV (Homo sapiens, UniProt P00533, INS769ASV)
Sequence (P00533 with tags, fused parts or gaps INS769ASV): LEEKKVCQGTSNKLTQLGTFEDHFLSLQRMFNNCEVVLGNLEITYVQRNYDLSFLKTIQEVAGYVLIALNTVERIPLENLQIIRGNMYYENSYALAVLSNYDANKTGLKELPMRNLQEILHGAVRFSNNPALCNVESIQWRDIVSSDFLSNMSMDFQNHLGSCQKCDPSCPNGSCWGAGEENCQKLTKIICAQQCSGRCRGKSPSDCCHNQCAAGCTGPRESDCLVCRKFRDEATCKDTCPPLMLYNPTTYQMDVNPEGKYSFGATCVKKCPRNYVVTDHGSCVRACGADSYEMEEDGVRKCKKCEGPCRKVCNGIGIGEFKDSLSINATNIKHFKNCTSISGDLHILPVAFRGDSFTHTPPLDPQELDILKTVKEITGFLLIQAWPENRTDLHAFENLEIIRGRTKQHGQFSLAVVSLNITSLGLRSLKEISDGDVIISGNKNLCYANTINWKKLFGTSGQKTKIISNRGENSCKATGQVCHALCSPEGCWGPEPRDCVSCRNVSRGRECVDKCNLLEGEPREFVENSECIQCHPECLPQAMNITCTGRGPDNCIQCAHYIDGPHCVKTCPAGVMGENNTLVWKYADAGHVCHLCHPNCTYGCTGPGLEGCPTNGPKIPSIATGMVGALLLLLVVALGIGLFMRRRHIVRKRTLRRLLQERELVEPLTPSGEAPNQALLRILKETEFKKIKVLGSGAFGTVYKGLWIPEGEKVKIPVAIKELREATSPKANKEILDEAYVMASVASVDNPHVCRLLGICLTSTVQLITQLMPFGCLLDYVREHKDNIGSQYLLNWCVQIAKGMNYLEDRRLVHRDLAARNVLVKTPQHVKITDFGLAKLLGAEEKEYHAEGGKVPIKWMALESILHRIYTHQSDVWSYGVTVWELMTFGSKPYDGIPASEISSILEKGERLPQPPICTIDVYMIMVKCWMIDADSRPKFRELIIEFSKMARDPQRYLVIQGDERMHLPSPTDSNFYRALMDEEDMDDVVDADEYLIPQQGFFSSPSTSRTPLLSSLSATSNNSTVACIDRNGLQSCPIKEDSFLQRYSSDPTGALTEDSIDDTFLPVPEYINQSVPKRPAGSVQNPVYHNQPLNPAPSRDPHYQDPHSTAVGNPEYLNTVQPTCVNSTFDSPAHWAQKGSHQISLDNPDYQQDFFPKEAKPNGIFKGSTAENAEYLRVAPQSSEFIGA
protocolDescription: EGFR Exon20 ASV insertion cellular phosphorylation inhibition (MSD pEGFR Y1068/total EGFR);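 also: electrochemiluminescent readout on an MSD SECTOR Imager, IL3-independent transduced cells in medium with 1% FBS, compound concentration series at 37 °C and 5% CO2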
conditionDetails: Ba/F3 EGFR ASV ins cells, 4 h compound, p-EGFR(Y1068)/total EGFR
Counter-ions that a name gives are not always drawn.
endpointLabel: pIC50
# reply with the number alone; pIC50 is -log10 of concentration in mol/L

C=CC(=O)Nc1cc(Nc2ncnc(Nc3cc(Cl)c(F)cc3C(C)(C)O)n2)c(OC)cc1N1CC[C@@H]1CN(C)C | 8.10
C=CC(=O)Nc1cc(Nc2ncnc(Nc3cc(Cl)c(F)cc3C3(O)CCC3)n2)c(OC)cc1N(C)CCN(C)C [Compound 72, formic acid salt] | 8.10
C=CC(=O)Nc1cc(Nc2ncnc(Nc3cc(Cl)c(F)cc3C(C)(C)O)n2)c(OC)cc1N(C)C[C@H]1CCCN1C | 8.24
C=CC(=O)Nc1cc(Nc2ncnc(Nc3cc(F)c(F)cc3C(C)(C)O)n2)c(OC)cc1N(C)CCN1CCCC1 | 7.37
C=CC(=O)Nc1cc(Nc2nccc(Nc3cc(Cl)c(F)cc3C(C)(C)O)n2)c(OC)cc1N1C[C@@H]2CN(C)[C@@H]2C1 [Compound 97, formic acid salt] | 7.84
C=CC(=O)Nc1cc(Nc2nccc(Nc3cc(Cl)c(F)cc3C(C)(O)CC)n2)c(OC)cc1N1CC[C@@H](N(C)C)C1 (single isomer, unassigned) [Compound 77] | 7.29
C=CC(=O)Nc1cc(Nc2ncnc(Nc3cc(Cl)c(F)cc3C(C)(C)O)n2)c(OC)cc1N(C)CCN1CCCCC1 | 7.39
C=CC(=O)Nc1cc(Nc2ncnc(Nc3cc(F)c(F)cc3C(C)(C)O)n2)c(OC)cc1N1CCC[C@@H]1CN(C)C | 8.64
C=CC(=O)Nc1cc(Nc2nccc(Nc3cc(Cl)c(F)cc3C(C)(O)C(F)(F)F)n2)c(OC)cc1N1CC[C@@H](N(C)C)C1 (some centres unmarked) | 7.15
C=CC(=O)Nc1cc(Nc2ncnc(Nc3cc(Cl)c(F)cc3C(C)(C)O)n2)c(OC)cc1N1C[C@@H](F)[C@@H](N(C)C)C1 | 7.71

Lab note: next compound to report on.
Request: Short answer please: pIC50, human EGFR exon 20 V769_D770insASV (Homo sapiens, UniProt P00533, INS769ASV), entry C=CC(=O)Nc1cc(Nc2ncnc(Nc3ccccc3C(C)(O)C(F)(F)F)n2)c(OC)cc1N(C)CCN(C)C (centres unmarked)
Result: 8.02
